Data origin: patent US20050069542A1

Target: T1, flag-tagged soluble TL3 (amino acids 105-251 of SEQ ID NO:234) (Homo sapiens (Human), UniProt O75888 105-250)
T1 construct: Heterologous flag-tagged control protein, immobilized in the ELISA; also called flagged tagged TL-3; not shown: Flag tag
T1 sequence: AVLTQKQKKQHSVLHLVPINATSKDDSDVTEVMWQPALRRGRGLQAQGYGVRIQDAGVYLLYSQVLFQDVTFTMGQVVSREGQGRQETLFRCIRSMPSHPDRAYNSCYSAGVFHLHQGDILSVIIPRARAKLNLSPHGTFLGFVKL
Test: phage ELISA on immobilized flag-tagged soluble TL3

# BINDER, binding result
measured = [
    ("GMBC662 (scFv) scFv: GVQLVQSGAEVKKPGSSVKVSCKASGGTFSSYTISWVRQAPGQGLEWMGRIIPILGIANYAQKFQGRVTITADKSTSTAYMELSSLRSEDTAVYYCAREKLRDFQHWGQGTLVTVSSGGGGSGGGGSGGGGSQSVLTQPASVSGSPGQSITISCTGTSSDVGGYNYVSWYQQHPGKAPKLMIYEGSKRPSGISNRFSGSKSGNTASLTISRLQAEDEADYYCSSYTTRSTRVFGGGTKLTVLG", "no binding"),
    ("GMBC612 (scFv) scFv: EVQLVESGGGVVQPGGSLRLSCAASGFSFSSYGMQWVRQAPGKGLEWVAFIRYDGSIKYYADSVKGRFTVSRDNSKNTLYLQMNSLRAEDTAVYYCARGYRIVDYWGQGTLVTVSSGGGGSGGGGSGGGGSDIQMTQSPSTLSPSIGDRVTITCRASEGIYHWLAWYQQKPGKAPKLLIYKASSLASGAPSRFSGSGSGTDFTLTISSLQPDDFATYYCQQYSNYPLTFGGGTKLEIKR", "no binding"),
    ("GMBC682 (scFv) scFv: QVQLVESGGGVVKPGGSLRLSCAASGFKFSDAWMNWVRQAPGKGLEWVGRIKSKGSGGTIDYAAPVKDRFTISRDDSKNTLYLQMNSLKTEDTALYYCTWDWDFYYGMNVWGRGTLVTVSSGGGGSGGGGSGGGGSSELTQDPAVSVALGQTVRITCQGDSLRSYYASWYQQKPGQAPVLVIYGKNNRPSGIPDRFSGSSSGNTASLTITGAQAEDEADYYCNSRDSSGNHVVFGGGTKLTVLG", "no binding"),
]
